Lab note: pIC50 readings collected with p38 map kinase (Homo sapiens, UniProt Q16539) for the following compounds.
Sequence (Q16539 whole entry): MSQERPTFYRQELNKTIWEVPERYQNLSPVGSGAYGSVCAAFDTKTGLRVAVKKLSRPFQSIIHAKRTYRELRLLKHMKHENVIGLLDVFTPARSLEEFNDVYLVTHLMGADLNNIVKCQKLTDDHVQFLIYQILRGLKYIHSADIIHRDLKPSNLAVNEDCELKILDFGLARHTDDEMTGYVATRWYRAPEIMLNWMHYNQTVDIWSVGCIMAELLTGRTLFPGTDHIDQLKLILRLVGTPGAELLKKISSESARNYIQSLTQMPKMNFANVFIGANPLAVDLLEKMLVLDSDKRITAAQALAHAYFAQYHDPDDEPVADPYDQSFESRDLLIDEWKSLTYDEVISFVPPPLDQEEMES
pIC50: −log10 of the molar value.

{"compound": "CC1(C)CNc2c(C(=O)c3ccc(F)cc3)ccc(=O)n2C1", "pIC50": 6.41}
{"compound": "O=C(c1ccc(F)cc1F)c1ccc(=O)n2c1N[C@@H]1CCCC[C@@H]12 (racemic)", "pIC50": 6.47}
{"compound": "O=C(c1cccc(Cl)c1)c1ccc(=O)n2c1N[C@@H]1CCCC[C@@H]12 (racemic)", "pIC50": 6.64}
{"compound": "CC1(C)Cn2c(c(C(=O)c3ccc(Cl)cc3)ccc2=O)N1", "pIC50": 5.75}
